measurementTarget: MCR-1 (Homo sapiens)
Construct: expressed in transfected cells; host or cells: HEK 293
assaySummary: Melanocortin receptor binding assay, competition with 125I-HP 467, HEK 293 cells expressing hMCR-1
assayContext: 10 μM isoquinoline compound, HEK 293 cells expressing MCR-1, duplicate 2
Lab note: cut-off is 70%. Strictly less in % Disp. of 125I-HP 467 (second of duplicate) is label 1. Exactly 70% or more is label 0.

Determine whether this compound shows % Disp. of 125I-HP 467 (second of duplicate) lower than 70% (ties excluded): CNC(CN)CCCCN1Cc2ccccc2C(CNC2CCCCC2)C1c1ccc(N(C)C)cc1 (centres unmarked) [TRG 2405-235] label 1

Does the reported % Disp. of 125I-HP 467 (second of duplicate) of CNC(CN)CCCCN1Cc2ccccc2C(CNC2CCCCC2)C1c1ccncc1 (centres unmarked) [TRG 2405-254] stay below 70%? label 1

Does this compound meet the criterion % Disp. of 125I-HP 467 (second of duplicate) < 70%? CNC(CN)CCCCN1Cc2ccccc2C(CNC2CCCCC2)C1c1cccnc1 (centres unmarked) [TRG 2405-231] label 1

Determine whether this compound shows % Disp. of 125I-HP 467 (second of duplicate) lower than 70% (ties excluded): CNC(CN)CCCCN1Cc2ccccc2C(CNC2CCCCC2)C1c1ccc(C)o1 (centres unmarked) [TRG 2405-259] label 1

Take the compound CNC(CN)CCCCN1Cc2ccccc2C(CNC2CCCCC2)C1c1ccc(C(F)(F)F)cc1 (centres unmarked) [TRG 2405-238] and say whether its % Disp. of 125I-HP 467 (second of duplicate) is less than 70%. label 0

----------
measurementTarget: MCR-1 (Homo sapiens)
Construct: expressed in transfected cells; host or cells: HEK 293
assaySummary: Melanocortin receptor binding assay, competition with 125I-HP 467, HEK 293 cells expressing hMCR-1
assayContext: TRG 2414 library; inhibition of binding of 125I-HP 467, HEK 293 cells expressing MCR-1; read-out: MC-1 IC50
Recorded measurements of pIC50, one per entry
pIC50 field: float, defined as -log10 of concentration (mol/L).

See these solved cases before continuing.
compound	measurementTarget	pIC50
NCC(CCCCN1Cc2ccccc2C(CNCCc2cccc(Cl)c2)C1c1ccccc1Br)NCc1ccccc1 (stereo not shown) [Cmpd 215]	MCR-1 (Homo sapiens)	5.07
NCC(CCCCN1Cc2ccccc2C(CNCc2ccccc2)C1c1ccccc1Br)NCc1ccccc1 (stereo not shown) [Cmpd 231]	MCR-1 (Homo sapiens)	4.96
CCCOc1ccc(C2C(CNC3CCCCCC3)c3ccccc3CN2CCCCC(CN)NCc2ccccc2)cc1 (stereo not shown) [Cmpd 195]	MCR-1 (Homo sapiens)	5.86

Look up and state reported pIC50 for CC(C)Cc1ccc(C(C)CNC(CN)CCCCN2Cc3ccccc3C(CNC3CCCCC3)C2c2ccccc2Br)cc1 (stereo not shown) [Cmpd 240] 5.05

Find the measured pIC50 of CCOc1ccccc1CNCC1c2ccccc2CN(CCCCC(CN)NCC(C)c2ccc(CC(C)C)cc2)C1c1ccccc1Br (stereo not shown) [Cmpd 208] and report it. 4.46

Complete the entry with pIC50 for COc1ccccc1CCNCC1c2ccccc2CN(CCCCC(N)CN)C1c1ccccc1Br (stereo not shown) [Cmpd 209] 5.77

State its pIC50 for this compound: COc1ccc(CCNCC2c3ccccc3CN(CCCCC(CN)NCC(C)c3ccc(CC(C)C)cc3)C2c2ccccc2Br)cc1 (stereo not shown) [Cmpd 228] 4.75

For COc1ccc(CCNCC2c3ccccc3CN(CCCCC(CN)NCc3ccccc3)C2c2ccccc2Br)cc1 (stereo not shown) [Cmpd 227] , write its pIC50. 5.35

Supply pIC50 value. Item: CCCOc1ccc(C2C(CNCc3ccccc3)c3ccccc3CN2CCCCC(N)CN)cc1 (stereo not shown) [Cmpd 189] 6.06

----------
measurementTarget: MCR-1 (Homo sapiens, UniProt Q01726)
Construct: expressed in transfected cells; host or cells: HEK 293
Sequence (Q01726 whole entry): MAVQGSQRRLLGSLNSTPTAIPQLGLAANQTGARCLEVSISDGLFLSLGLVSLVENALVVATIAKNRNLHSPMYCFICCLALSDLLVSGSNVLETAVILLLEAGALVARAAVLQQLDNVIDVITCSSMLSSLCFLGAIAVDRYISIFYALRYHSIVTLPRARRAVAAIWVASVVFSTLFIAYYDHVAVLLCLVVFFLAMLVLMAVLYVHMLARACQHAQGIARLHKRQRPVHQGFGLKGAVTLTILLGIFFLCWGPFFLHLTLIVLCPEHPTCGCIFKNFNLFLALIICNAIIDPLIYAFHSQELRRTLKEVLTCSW
assaySummary: Melanocortin receptor binding assay, competition with 125I-HP 467, HEK 293 cells expressing hMCR-1
assayContext: displacement of 125I-HP 467 at 10 μM isoquinoline compound; first of duplicate
Description: All cell culture media and reagents were obtained from GibcoBRL (Gaithersburg Md.), except for COSMIC CALF SERUM (HyClone; Logan Utah). Cells were suspended in PBS, 10% COSMIC CALF SERUM and 1 mM CaCl2. […] To assay isoquinoline compounds, binding assays were performed in duplicate in a 96 well format. […] Cells were harvested on GF/B filter plates as described above and counted.
% Disp. MC-1 10 μM for assorted compounds
Value expressed in %; do not type the unit.

Give reported % Disp. MC-1 10 μM value for CNC(CN)CN1Cc2ccccc2C(CNC2CCCCC2)C1c1cccc(Oc2ccc(OC)cc2)c1 (stereo not drawn) 65.2

For the compound COc1ccccc1C1C(CNC2CCCCC2)c2ccccc2CN1CCN (stereo not drawn) , report % Disp. MC-1 10 μM. 42.2

Provide % Disp. MC-1 10 μM value for the following compound: CNC(CN)CN1Cc2ccccc2C(CNC2CCCCC2)C1c1cccc(Br)c1 (stereo not drawn) 50.6

Fill in % Disp. MC-1 10 μM for record CNC(CN)CN1Cc2ccccc2C(CNC2CCCCC2)C1c1ncc[nH]1 (stereo not drawn) 46

Please supply the value of reported % Disp. MC-1 10 μM for the item CSc1ccc(C2C(CNC3CCCCC3)c3ccccc3CN2CCN)cc1 (stereo not drawn) 17.4

Please look at this compound and report its % Disp. MC-1 10 μM: CNC(CN)CN1Cc2ccccc2C(CNC2CCCCC2)C1c1cccc(C)c1 (stereo not drawn) 40.6

Answer with reported % Disp. MC-1 10 μM of NCCN1Cc2ccccc2C(CNC2CCCCC2)C1c1ccccc1O (stereo not drawn) 42.9

Give me measured % Disp. MC-1 10 μM, please, for this compound: COc1cccc(C2C(CNC3CCCCC3)c3ccccc3CN2CCN)c1 (stereo not drawn) 40.6

Please supply the value of reported % Disp. MC-1 10 μM for the item NCCN1Cc2ccccc2C(CNC2CCCCC2)C1c1cccc([N+](=O)[O-])c1 (stereo not drawn) 37.2

Give recorded % Disp. MC-1 10 μM. CCn1c2ccccc2c2cc(C3C(CNC4CCCCC4)c4ccccc4CN3CCN)ccc21 (stereo not drawn) 39.1

Give the measured % Disp. MC-1 10 μM for CNC(CN)CN1Cc2ccccc2C(CNC2CCCCC2)C1c1cccc(F)c1F (stereo not drawn) 34.7

Answer with the recorded % Disp. MC-1 10 μM for the compound listed here: CNC(CN)CN1Cc2ccccc2C(CNC2CCCCC2)C1c1ccccc1OC (stereo not drawn) 34.7

----------
// reported IC50 per item
measurementTarget: MCR-1 (Homo sapiens)
Construct: expressed in transfected cells; host or cells: HEK 293
assaySummary: Melanocortin receptor binding assay, competition with 125I-HP 467, HEK 293 cells expressing hMCR-1
assayContext: inhibition of binding of 125I-HP 467, HEK 293 cells expressing MCR-1; read-out: MC-1 IC50

Please review the following examples before continuing.
compound	IC50
COc1cccc(CCNCC2c3ccccc3CN(CCCCC(CN)NCc3ccc(-c4ccccc4)cc3)C2c2cc(C(F)(F)F)cc(C(F)(F)F)c2)c1 (stereo not shown) [TRG 2421-40]	12100 nM
CCNc1ccc(C2C(CNCCc3ccccc3)c3ccccc3CN2CCCC(CN)NCc2ccccc2CNCc2ccccc2)cc1 (stereo not shown) [TRG 2420-14]	135 nM
CCCCNc1ccc(C2C(CN)c3ccccc3CN2CCCC(CN)NC)cc1 (stereo not shown) [TRG 2411-217]	90 nM

Could you please provide reported IC50 for CCCOc1ccc(C2C(CNCCc3ccccc3)c3ccccc3CN2CCCCC(CN)NCc2ccccc2)cc1 (stereo not shown) [TRG 2412-9] ? Thanks! 570 nM

Input NCC(CCCN1Cc2ccccc2C(CNCCc2ccccc2)C1c1ccc([N+](=O)[O-])cc1)NCCc1ccccc1 (stereo not shown) [TRG 2413-13] , output reported IC50. 1070 nM

Consider the compound NCC(CCCN1Cc2ccccc2C(CN)C1c1ccc([N+](=O)[O-])cc1)NCCc1ccccc1 (stereo not shown) [TRG 2413-15] and give its recorded IC50. 1920 nM

Note IC50 for the compound shown: CCCCOc1ccc(C2C(CNCCc3ccccc3)c3ccccc3CN2CCCC(CN)NC)cc1 (stereo not shown) [TRG 2412-25] 160 nM

----------
measurementTarget: MCR-1 (Homo sapiens)
Construct: expressed in transfected cells; host or cells: HEK 293
assaySummary: Melanocortin receptor binding assay, competition with 125I-HP 467, HEK 293 cells expressing hMCR-1
assayContext: displacement of 125I-HP 467 at 10 μM isoquinoline compound; second of duplicate
% Disp. MC-1 10 μM values for the molecules below.
Record the value in %, omitting the unit from your answer.

molecule	% Disp. MC-1 10 μM, %
CN(C)c1ccc(C2C(CNC3CCCCC3)c3ccccc3CN2CCN)cc1 (stereo not drawn)	38.1

Output measured % Disp. MC-1 10 μM for this item: NCCN1Cc2ccccc2C(CNC2CCCCC2)C1c1ccc[nH]1 (stereo not drawn) 59.8

Could you please provide reported % Disp. MC-1 10 μM for NCCN1Cc2ccccc2C(CNC2CCCCC2)C1c1ccc(O)cc1 (stereo not drawn) ? Thanks! 11.3

Return value of % Disp. MC-1 10 μM for input CNC(CN)CN1Cc2ccccc2C(CNC2CCCCC2)C1c1cccn1C (mixture of isomers) , no commentary. 72

Return reported % Disp. MC-1 10 μM. Input molecule: COc1cc(OC)cc(C2C(CNC3CCCCC3)c3ccccc3CN2CCN)c1 (stereo not drawn) 48.5

Using the record for NCCN1Cc2ccccc2C(CNC2CCCCC2)C1c1cccnc1 (stereo not drawn) , state its measured % Disp. MC-1 10 μM. 23.1

Complete the entry with % Disp. MC-1 10 μM for CCn1c2ccccc2c2cc(C3C(CNC4CCCCC4)c4ccccc4CN3CCN)ccc21 (stereo not drawn) 46.9

Fill in reported % Disp. MC-1 10 μM for this entry: CCCOc1ccc(C2C(CNC3CCCCC3)c3ccccc3CN2CC(CN)NC)cc1 (stereo not drawn) 58.1

Indicate its recorded % Disp. MC-1 10 μM; the molecule in question is CNC(CN)CN1Cc2ccccc2C(CNC2CCCCC2)C1c1cc(C(F)(F)F)cc(C(F)(F)F)c1 (mixture of isomers) 58.9
